Source listed as ChEMBL document CHEMBL1140434.

Catalogue of inhibition values
tested on: Adenosine receptor A2a (Bos taurus); experiment: Percentage inhibition of [3H]CGS 21680 binding to adenosine A2A receptor in bovine striatal membranes at 20 uM; settings: Striatum, Membrane
measureName: inhibition (%)

INSERT INTO results (chemicalstring, measurename, unitofmeasure, observed) VALUES
  ('O=C(NCc1ccccc1)c1nc2c(O)nc3ccccc3n2n1', 'inhibition', '%', 27),
  ('CCOC(=O)c1nc2c(O)nc3ccccc3n2n1', 'inhibition', '%', 3.6),
  ('Cn1c(=O)c2nc(-c3ccccc3)nn2c2ccccc21', 'inhibition', '%', 8.8),
  ('NC(=O)c1nc2c(O)nc3ccccc3n2n1', 'inhibition', '%', 17),
  ('Cn1c(=O)c2ncnn2c2cc(Cl)ccc21', 'inhibition', '%', 8.9),
  ('CCOC(=O)c1nc2c(O)nc3ccc(N)cc3n2n1', 'inhibition', '%', 32.7),
  ('Oc1nc2ccc(Cl)cc2n2ncnc12', 'inhibition', '%', 23);
